test system: Phenion®FT Skin Models; details: human
Measured metric: Dose producing signs of strong cytotoxicity that limited the top dose (µg/cm^2)
Write the answer as a number in µg/cm^2, unit excluded.

CCOS(C)(=O)=O [EMS, Ethyl methanesulfonate] : 200
Cc1ccc(N)cc1N : 1280

Fill blank: measured Dose producing signs of strong cytotoxicity that limited the top dose of the compound Nc1ccc(Cl)cc1 is ____. 5

Fill blank: measured Dose producing signs of strong cytotoxicity that limited the top dose of the compound COc1cc(/C=C/C(=O)CC(=O)/C=C/c2ccc(O)c(OC)c2)ccc1O is ____. 50

Fill blank: measured Dose producing signs of strong cytotoxicity that limited the top dose of the compound CC(C)(C)c1cc(O)ccc1O [TBHQ, Tert-butylhydroquinone] is ____. 40

Hello, the source for this data is paper PMC8081376, in case you need it.
